Reference source: BigSolDB 2.1

conditions: in sec-butanol, 298.15 K
measurementLabel: solubility (mole fraction)
Kindly provide the number alone.

Kindly note the recorded solubility (mole fraction) for CC(C)(C)OC(=O)N[C@@H](CCCN=C(N)N[N+](=O)[O-])C(=O)O , which is 0.00896

====

conditions: in DMF, 308.15 K
measurementLabel: solubility (mole fraction)
Please give only the number in your answer, with no unit.

Quick note, solubility (mole fraction) for CC(C)(C)OC(=O)N[C@@H](CCCN=C(N)N[N+](=O)[O-])C(=O)O landed at 0.346

====

details: in sec-butanol, 318.15 K
measurementLabel: solubility (mole fraction)
Simply state the number, no unit and no words.

The recorded solubility (mole fraction) for CC(C)(C)OC(=O)N[C@@H](CCCN=C(N)N[N+](=O)[O-])C(=O)O is 0.0192

====

details: in DMF, 283.15 K
measurementLabel: solubility (mole fraction)
Please reply with the value in numeric form only.

Just so you know, measured solubility (mole fraction) for CC(C)(C)OC(=O)N[C@@H](CCCN=C(N)N[N+](=O)[O-])C(=O)O came out at 0.164

====

settings: in methanol, 293.15 K
measurementLabel: solubility (mole fraction)

get_value(item= CC(C)(C)OC(=O)N[C@@H](CCCN=C(N)N[N+](=O)[O-])C(=O)O , readout=solubility (mole fraction)) returns 0.0601

====

conditions: in isopropanol, 298.15 K
measurementLabel: solubility (mole fraction)
Give the value as a plain number.

solubility (mole fraction) in this record for CC(C)(C)OC(=O)N[C@@H](CCCN=C(N)N[N+](=O)[O-])C(=O)O : 0.0102

====

conditions: in n-butanol, 293.15 K
measurementLabel: solubility (mole fraction)
A bare number is all that is needed in reply.

Record summary for CC(C)(C)OC(=O)N[C@@H](CCCN=C(N)N[N+](=O)[O-])C(=O)O : reported solubility (mole fraction) = 0.00583

====

conditions: in ethanol, 323.15 K
measurementLabel: solubility (mole fraction)
The answer should be a number; do not append a unit.

Please fill in: solubility (mole fraction) reported for CC(C)(C)OC(=O)N[C@@H](CCCN=C(N)N[N+](=O)[O-])C(=O)O = 0.0666

====

settings: in n-butanol, 323.15 K
measurementLabel: solubility (mole fraction)

The measured solubility (mole fraction) associated with CC(C)(C)OC(=O)N[C@@H](CCCN=C(N)N[N+](=O)[O-])C(=O)O reads 0.0172

====

settings: in acetonitrile, 303.15 K
measurementLabel: solubility (mole fraction)
Number, no unit, nothing else.

The compound listed as CC(C)(C)OC(=O)N[C@@H](CCCN=C(N)N[N+](=O)[O-])C(=O)O has a reported solubility (mole fraction) of 0.00222

====

details: in n-propanol, 283.15 K
measurementLabel: solubility (mole fraction)
// print number alone

For record CC(C)(C)OC(=O)N[C@@H](CCCN=C(N)N[N+](=O)[O-])C(=O)O the listed solubility (mole fraction) is 0.00543

====

settings: in n-propanol, 318.15 K
measurementLabel: solubility (mole fraction)
Answer field: number only, no words.

Given item CC(C)(C)OC(=O)N[C@@H](CCCN=C(N)N[N+](=O)[O-])C(=O)O , the value recorded as its solubility (mole fraction) is 0.0236

====

settings: in ethanol, 303.15 K
measurementLabel: solubility (mole fraction)
Number only, no unit.

Notebook: CC(C)(C)OC(=O)N[C@@H](CCCN=C(N)N[N+](=O)[O-])C(=O)O , solubility (mole fraction) read as 0.0327
